Reported log10(IC50) values are given for each entry in this list.
Target: UniProt Q16832
Sequence (Q16832 563-849 limits assumed): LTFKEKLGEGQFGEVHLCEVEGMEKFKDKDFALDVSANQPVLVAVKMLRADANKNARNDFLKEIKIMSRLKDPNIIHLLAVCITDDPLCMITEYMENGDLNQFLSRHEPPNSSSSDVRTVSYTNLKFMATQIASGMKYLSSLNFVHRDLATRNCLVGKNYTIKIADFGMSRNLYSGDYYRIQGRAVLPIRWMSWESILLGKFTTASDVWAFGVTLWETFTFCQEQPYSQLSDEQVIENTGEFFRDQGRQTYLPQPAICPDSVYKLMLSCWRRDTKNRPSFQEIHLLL
Kindly note that the scale is log10 and the underlying IC50 is in nM.

Worked cases, answers included:
**Query** I'd like to know its log10(IC50). The molecule in question is NS(=O)(=O)c1cccc(Nc2nccc(-c3sc4nccc(=O)n4c3-c3cccc(Cl)c3Cl)n2)c1 [Compound 59]
**Result** 1.67

**Query** I'd like to know its log10(IC50). The molecule in question is CC(C)c1cc(=O)n2c(-c3ccccc3)c(-c3ccnc(Nc4cccc(N5CCN(CCO)CC5)c4)n3)sc2n1 [Compound 73]
**Result** 1.52

**Query** I'd like to know its log10(IC50). The molecule in question is CN1CCN(c2ccc(Nc3nccc(-c4sc5nccc(=O)n5c4-c4ccccc4Cl)n3)cc2)CC1 [Compound 39]
**Result** 1.33

From here, focus on the item given below.
**Query** I'd like to know its log10(IC50). The molecule in question is CC(C)c1c(-c2ccnc(Nc3cccc(N4CCN(CCO)CC4)c3)n2)sc2nccc(=O)n12 [Compound 64]
**Result** 1.96

Reference source: patent EP4032896A1
